Each record here notes measured IC50.
Target: Cdc7/Dbf4 (Homo sapiens)
Test: Cdc7 Biochemical Assay Method 3: Cdc7/Dbf4 Enzyme TR-FRET Assay measuring pS40MCM2
Conditions: 1 μM ATP, read-out: Biochemical Method 3 (pIC50) (converted)

| compound | IC50 [nM] |
| --- | --- |
| N[C@@H]1CCCN(c2nc(-c3ccnc(F)c3)[nH]c(=O)c2Cl)C1 | 0.933 |
| O=c1[nH]c(-c2ccnc(F)c2)nc(N2CCOCC2)c1Cl | 0.525 |
| O=c1[nH]c(-c2ccnc(F)c2)nc(N2CCOC3(CCNCC3)C2)c1Cl | 2.24 |
| O=c1[nH]c(-c2ccnc(F)c2)nc(N2CCC3(CCCNC3)C2)c1Cl (centres unmarked) | 15.5 |
| O=c1[nH]c(-c2ccnc(F)c2)nc(N2CCCC(F)(F)C2)c1Cl | 0.355 |

====

Target: Cdc7/Dbf4 (Homo sapiens, UniProt O00311)
Assay: Cdc7 Biochemical Assay Method 3: Cdc7/Dbf4 Enzyme TR-FRET Assay measuring pS40MCM2
Conditions: 1 μM ATP, read-out: Biochemical Method 3 (pIC50) (converted)
Listed below: IC50 values for each entry.

| compound | IC50 |
| --- | --- |
| O=c1[nH]c(-c2ccnc(F)c2)nc(N2CCCOCC2)c1Cl [Compound 338] | 0.708 nM |
| C[C@@H]1CN(c2nc(-c3ccnc(F)c3)[nH]c(=O)c2Cl)C[C@H](C)O1 [Compound 201] | 4.17 nM |
| CC[C@H]1COCCN1c1nc(-c2ccnc(F)c2)[nH]c(=O)c1Cl [Compound 336] | 1.82 nM |
| CC1CCNCCN1c1nc(-c2ccnc(F)c2)[nH]c(=O)c1Cl (stereo not shown) [Compound 351] | 1.35 nM |

====

Target: Cdc7/ASK (Homo sapiens, UniProt O00311)
Sequence (O00311 whole entry): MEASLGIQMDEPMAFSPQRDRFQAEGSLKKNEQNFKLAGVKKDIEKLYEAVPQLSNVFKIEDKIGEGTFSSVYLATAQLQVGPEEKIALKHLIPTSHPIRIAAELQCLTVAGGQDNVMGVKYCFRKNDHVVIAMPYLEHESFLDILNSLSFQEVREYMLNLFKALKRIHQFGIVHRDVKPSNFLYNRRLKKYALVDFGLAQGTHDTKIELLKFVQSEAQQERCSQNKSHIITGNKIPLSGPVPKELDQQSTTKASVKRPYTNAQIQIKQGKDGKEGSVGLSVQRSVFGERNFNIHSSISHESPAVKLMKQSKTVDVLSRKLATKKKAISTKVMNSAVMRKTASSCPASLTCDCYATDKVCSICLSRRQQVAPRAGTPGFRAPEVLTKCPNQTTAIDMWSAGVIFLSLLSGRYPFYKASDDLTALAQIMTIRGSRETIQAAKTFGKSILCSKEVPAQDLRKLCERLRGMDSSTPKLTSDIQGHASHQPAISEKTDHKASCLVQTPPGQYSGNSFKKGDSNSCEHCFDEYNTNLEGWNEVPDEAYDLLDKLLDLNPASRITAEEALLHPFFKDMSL
Sequence (Q9UBU7 whole entry partner): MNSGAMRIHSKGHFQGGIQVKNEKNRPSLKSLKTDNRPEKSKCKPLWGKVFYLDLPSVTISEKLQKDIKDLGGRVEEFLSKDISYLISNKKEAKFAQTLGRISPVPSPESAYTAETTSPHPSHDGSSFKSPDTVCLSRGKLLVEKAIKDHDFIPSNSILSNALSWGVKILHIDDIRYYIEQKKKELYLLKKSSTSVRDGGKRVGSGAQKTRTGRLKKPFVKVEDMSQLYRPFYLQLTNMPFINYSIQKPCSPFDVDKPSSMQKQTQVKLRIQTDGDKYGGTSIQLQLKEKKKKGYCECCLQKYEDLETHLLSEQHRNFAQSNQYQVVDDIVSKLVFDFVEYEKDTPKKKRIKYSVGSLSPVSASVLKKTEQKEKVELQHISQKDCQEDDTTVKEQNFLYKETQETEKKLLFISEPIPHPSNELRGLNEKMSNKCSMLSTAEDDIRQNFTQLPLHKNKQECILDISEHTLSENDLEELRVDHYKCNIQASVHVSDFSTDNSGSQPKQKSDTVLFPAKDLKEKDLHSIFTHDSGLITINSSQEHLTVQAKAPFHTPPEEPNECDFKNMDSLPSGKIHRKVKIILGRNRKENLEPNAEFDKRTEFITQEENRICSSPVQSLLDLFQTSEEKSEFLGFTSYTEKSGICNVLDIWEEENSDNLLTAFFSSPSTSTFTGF
Experiment: Cdc7 Biochemical Assay Method 2: 384 well mobility shift assay (EZ Reader II), MCM2 peptide substrate
Design: purchased
Details: 12.5 μM ATP, read-out: Biochemical Method 2 (pIC50) (converted)
Measured IC50, listed per entry.
metricName: IC50 (nM)

| molecule | metricName | observedValue |
| --- | --- | --- |
| N[C@@H]1CCCN(c2nc(-c3ccnc(F)c3)[nH]c(=O)c2Cl)C1 | IC50 | 1.51 |
| CC(C)[C@H]1CNCCN1c1nc(-c2ccncc2)[nH]c(=O)c1Cl | IC50 | 12 |
| CC(C)CC1COCCN1c1nc(-c2ccncc2)[nH]c(=O)c1Cl (stereo not drawn) | IC50 | 295 |
| CC[C@H]1CNCCN1c1nc(-c2ccncc2)[nH]c(=O)c1Cl | IC50 | 5.5 |
| CC(C)[C@H]1CN(c2nc(-c3ccnc(F)c3)[nH]c(=O)c2Cl)CCN1 | IC50 | 1.17 |
| CCCC1COCCN1c1nc(-c2ccncc2)[nH]c(=O)c1Cl (stereo not drawn) | IC50 | 60.3 |
| O=c1[nH]c(-c2ccncc2)nc(N2CCCOCC2)c1Cl | IC50 | 3.89 |
| CC(C)(C)[C@H]1CN(c2nc(-c3ccncc3)[nH]c(=O)c2F)CCN1 | IC50 | 0.776 |
| CC(C)(C)[C@H]1CN(c2nc(-c3ccncc3)[nH]c(=O)c2C#N)CCN1 | IC50 | 10.5 |
| CC(C)[C@H]1CN(c2nc(-c3ccncc3)[nH]c(=O)c2F)CCN1 | IC50 | 0.912 |
| NC1CCN(c2nc(-c3ccnc(F)c3)[nH]c(=O)c2Cl)CC1 | IC50 | 2.29 |
| C[C@@H]1CNCCN1c1nc(-c2ccnc(F)c2)[nH]c(=O)c1Cl | IC50 | 0.575 |
| CC(C)[C@H]1CN(c2nc(-c3ccncc3)[nH]c(=O)c2C#N)CCN1 | IC50 | 11.5 |
| NC[C@@H]1CCN(c2nc(-c3ccnc(F)c3)[nH]c(=O)c2Cl)C1 | IC50 | 14.1 |
| NC[C@@H]1CCCN(c2nc(-c3ccnc(F)c3)[nH]c(=O)c2Cl)C1 | IC50 | 1.78 |
| CC[C@@H]1CNCCN1c1nc(-c2ccncc2)[nH]c(=O)c1Cl | IC50 | 3.09 |
| CC(C)(C)[C@H]1CN(c2nc(-c3ccnc(F)c3)[nH]c(=O)c2Cl)CCN1 | IC50 | 1.38 |
| N[C@H]1CCN(c2nc(-c3ccnc(F)c3)[nH]c(=O)c2Cl)C1 | IC50 | 3.72 |
